assay: NCI Yeast Anticancer Drug Screen. Data for the mec2-1 strain (AID 157); conditions: S. cerevisiae mec2-1 strain, at 50.0 µM, active compounds read high
This is part of a sample that, as a whole, favours compounds with a hit. Of some 79,000 tested, about 15% had one in any assay.
Observable: growth inhibition (%)
Lab book: enter the figure in %, no units written.

# example entries with known answers
Compound | growth inhibition (%)
CC1(C)C=C(NC(=O)N2CC2)C(C)(C)N1O | 11.3
CCCCSP(SCCCC)N1CCCCC1 | 89.4
CC(=O)Nc1c2sscc-2n(C)c1=O | 94.9

-- ask Endpoint output: growth inhibition of O=C1SCCC1CO (stereo not given) . Value?
-- reply 3.9

-- ask Endpoint output: growth inhibition of ClC1CC2OC(Cl)CC2O1 (stereo not given) . Value?
-- reply 1.05

-- ask Endpoint output: growth inhibition of CC(C)CC1N=C(NN=C2CCCCC2)SP1(=O)NNc1ncccn1 (stereo not given) . Value?
-- reply 7.15

Ref: PubChem BioAssay (NCI)
